Hello, the source for this data is ChEMBL document CHEMBL5356958, in case you need it.

molecular target: Voltage-gated inwardly rectifying potassium channel KCNH2 (Homo sapiens)
Sequence (Q12809 whole entry): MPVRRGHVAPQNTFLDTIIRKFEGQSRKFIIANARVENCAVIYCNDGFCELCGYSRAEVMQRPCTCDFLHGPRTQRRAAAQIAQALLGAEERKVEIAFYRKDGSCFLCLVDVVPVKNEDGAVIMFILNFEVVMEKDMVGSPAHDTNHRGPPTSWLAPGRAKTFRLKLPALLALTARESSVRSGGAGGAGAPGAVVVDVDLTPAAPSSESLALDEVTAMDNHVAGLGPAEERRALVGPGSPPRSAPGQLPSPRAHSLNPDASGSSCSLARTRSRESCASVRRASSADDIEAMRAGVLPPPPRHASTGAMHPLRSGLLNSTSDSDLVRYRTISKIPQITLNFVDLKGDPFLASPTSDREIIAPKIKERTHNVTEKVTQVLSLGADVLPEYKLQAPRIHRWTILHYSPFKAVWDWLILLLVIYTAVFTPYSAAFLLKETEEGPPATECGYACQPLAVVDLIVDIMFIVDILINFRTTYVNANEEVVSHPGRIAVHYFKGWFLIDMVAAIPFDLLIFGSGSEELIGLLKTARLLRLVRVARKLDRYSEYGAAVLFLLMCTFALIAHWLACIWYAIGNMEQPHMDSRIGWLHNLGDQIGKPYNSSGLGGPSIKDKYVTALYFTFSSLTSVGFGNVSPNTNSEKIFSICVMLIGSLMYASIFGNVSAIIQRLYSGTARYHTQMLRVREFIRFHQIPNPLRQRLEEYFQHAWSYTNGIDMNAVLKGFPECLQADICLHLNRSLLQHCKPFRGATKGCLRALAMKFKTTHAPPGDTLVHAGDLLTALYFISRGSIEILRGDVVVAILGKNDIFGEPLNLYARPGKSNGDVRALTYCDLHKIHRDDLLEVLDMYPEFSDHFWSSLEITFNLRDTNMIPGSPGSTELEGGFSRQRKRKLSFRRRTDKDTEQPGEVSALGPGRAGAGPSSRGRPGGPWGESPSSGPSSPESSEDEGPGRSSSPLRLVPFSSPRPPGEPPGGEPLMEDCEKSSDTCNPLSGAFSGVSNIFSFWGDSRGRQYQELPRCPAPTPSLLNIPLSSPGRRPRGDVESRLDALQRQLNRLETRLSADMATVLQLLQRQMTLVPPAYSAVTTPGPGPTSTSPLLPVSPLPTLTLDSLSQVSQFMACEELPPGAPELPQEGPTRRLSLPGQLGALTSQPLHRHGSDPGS
pIC50: −log10 of the molar value.
measured_metric: pIC50

> print(dat)
                                 cpd.smiles  result
1  CCc1nc(-c2ccc(OC)cc2)n(-c2cccc(C(=O)NCCCCn3nccn3)c2)n1  < 4.40

###

test: AUC(0 to infinity) in ICR mouse at 10 mg/kg, po; assay type: ADME, organism-based; design: dose 10 mg/kg, route po; conditions: in vivo
measured_metric: AUC(0-inf) (ng·h/mL)

> print(dat)
                                 cpd.smiles  result.number
1  CCc1nc(-c2ccc(OC)cc2)n(-c2cccc(C(=O)NCCCCn3nccn3)c2)n1           4940

###

test: Aqueous solubility of compound in PBS at pH 2; format: physicochemical
measured_metric: log10 of solubility (log10 of the value in µM)

> print(dat)
                                 cpd.smiles  result.number
1  CCc1nc(-c2ncc(OC)cn2)n(-c2cccc(C(=O)NCCCCc3ccccc3)c2)n1           0.23
2  CCc1nc(-c2ccc(OC)cc2)n(-c2cccc(C(=O)NCCCCn3nccn3)c2)n1           3.12
3  CCc1nc(-c2ccc(OC)cc2)n(-c2cccc(C(=O)NCCCCn3cccn3)c2)n1           3.05
4  CCc1nc(-c2ccc(OC)cc2)n(-c2cccc(C(=O)NCCCCn3ncnn3)c2)n1           2.94
5  CCc1nc(-c2ccc(OC)cc2)n(-c2cccc(C(=O)NCCCCn3ncc(Br)n3)c2)n1           1.33

###

test: AUC(0 to t) in ICR mouse at 10 mg/kg, po; format: ADME, organism-based; design: dose 10 mg/kg, route po; conditions: in vivo
measured_metric: AUC(0-t) (ng·h/mL)

> print(dat)
                                 cpd.smiles  measured.metric  result.number
1  CCc1nc(-c2ccc(OC)cc2)n(-c2cccc(C(=O)NCCCCn3nccn3)c2)n1         AUC(0-t)           4920

###

tested on: MGC-803; assay: Antiproliferative activity against human MGC-803 cells incubated for 48 hrs by SRB assay; assay type: functional, cell-based; details: MGC-803, 48 h
measured_metric: IC50 (nM)

> print(dat)
                                 cpd.smiles  value.prefix  result.number
1  CCc1nc(-c2ccc(OC)cc2)n(-c2cccc(C(=O)NCCCCn3cccn3)c2)n1             =            750
2  CCc1nc(-c2ccc(OC)cc2)n(-c2cccc(C(=O)NCCCCn3nccn3)c2)n1             =            160
3  CCc1nc(-c2ccc(OC)cc2)n(-c2cccc(C(=O)NCCCCc3ccncc3)c2)n1             >          10000
4  CCc1nc(-c2ccc(Br)cc2)n(-c2cccc(C(=O)NCCCCn3nccn3)c2)n1             =          11100
5  CCc1nc(-c2ccc(C)cc2)n(-c2cccc(C(=O)NCCCCn3nccn3)c2)n1             =            600

###

Target: CYP1A (Homo sapiens, UniProt P04798+P05177)
Sequence (P04798 whole entry): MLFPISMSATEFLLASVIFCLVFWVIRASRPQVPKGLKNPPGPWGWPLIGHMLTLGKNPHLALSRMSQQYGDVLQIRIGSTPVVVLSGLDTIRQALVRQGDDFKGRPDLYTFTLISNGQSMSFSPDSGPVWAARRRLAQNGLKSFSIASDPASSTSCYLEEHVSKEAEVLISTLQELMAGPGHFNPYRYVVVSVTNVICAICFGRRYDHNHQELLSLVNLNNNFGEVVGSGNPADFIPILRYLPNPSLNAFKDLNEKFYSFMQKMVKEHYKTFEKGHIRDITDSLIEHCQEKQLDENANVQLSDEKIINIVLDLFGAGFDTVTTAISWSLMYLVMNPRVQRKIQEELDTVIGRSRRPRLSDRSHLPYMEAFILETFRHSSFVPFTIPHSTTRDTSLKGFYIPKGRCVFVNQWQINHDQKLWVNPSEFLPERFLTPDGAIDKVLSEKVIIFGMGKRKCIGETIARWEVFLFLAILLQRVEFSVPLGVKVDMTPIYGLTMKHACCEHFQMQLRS
Sequence (P05177 whole entry): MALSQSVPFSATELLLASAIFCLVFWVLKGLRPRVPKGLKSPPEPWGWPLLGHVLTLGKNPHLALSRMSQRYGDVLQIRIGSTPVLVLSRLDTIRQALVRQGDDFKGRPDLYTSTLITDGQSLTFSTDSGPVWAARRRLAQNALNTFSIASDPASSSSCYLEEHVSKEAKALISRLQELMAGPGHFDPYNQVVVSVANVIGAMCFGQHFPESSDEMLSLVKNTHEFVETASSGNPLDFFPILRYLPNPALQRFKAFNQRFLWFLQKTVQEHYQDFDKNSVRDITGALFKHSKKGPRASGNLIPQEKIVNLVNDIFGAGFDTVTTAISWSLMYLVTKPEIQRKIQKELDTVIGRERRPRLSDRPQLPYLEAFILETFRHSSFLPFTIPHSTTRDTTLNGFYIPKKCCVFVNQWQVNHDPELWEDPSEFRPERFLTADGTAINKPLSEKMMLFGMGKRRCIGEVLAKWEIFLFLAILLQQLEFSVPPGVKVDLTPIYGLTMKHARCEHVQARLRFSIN
Assay: Inhibition of CYP1A in human liver microsomes
Format: ADME, Microsome
measured_metric: IC50

> print(dat)
                                 cpd.smiles   result
1  CCc1nc(-c2ccc(OC)cc2)n(-c2cccc(C(=O)NCCCCn3nccn3)c2)n1  > 50 µM

###

system: MGC-803; assay: Antiproliferative activity against human MGC-803 cells incubated for 48 hrs by SRB assay; assay type: functional, cell-based; details: MGC-803, 48 h
pIC50: −log10 of the molar value.
// values below are reported pIC50
measured_metric: pIC50

> print(dat)
                                 cpd.smiles  target.of.assay  value.prefix  result.number
1  CCc1nc(-c2ccc(OC)cc2)n(-c2cccc(C(=O)NCCCCn3ccnn3)c2)n1          MGC-803             <           5.00
2  CCc1nc(-c2ccc(OC)cc2)n(-c2cccc(C(=O)NCCCCn3cncn3)c2)n1          MGC-803             <           5.00
3  CCc1nc(-c2ccc(OC)cn2)n(-c2cccc(C(=O)NCCCCn3nccn3)c2)n1          MGC-803             =           5.77
4  CCc1nc(-c2ccc(OC)cc2)n(-c2cccc(C(=O)NCCCCc3cccs3)c2)n1          MGC-803             =           6.28
5  CCc1nc(-c2ccccc2)n(-c2cccc(C(=O)NCCCCn3nccn3)c2)n1          MGC-803             =           5.17
6  CCc1nc(-c2ccc([N+](=O)[O-])cc2)n(-c2cccc(C(=O)NCCCCn3nccn3)c2)n1          MGC-803             =           5.26
7  CCc1nc(-c2ccc(OC)cc2)n(-c2cccc(C(=O)NCCCCCCn3nccn3)c2)n1          MGC-803             <           5.00
8  CCc1nc(-c2ccc(OC(F)(F)F)cc2)n(-c2cccc(C(=O)NCCCCn3nccn3)c2)n1          MGC-803             =           5.41
9  CCc1nc(-c2ccc(C(F)(F)F)cc2)n(-c2cccc(C(=O)NCCCCn3nccn3)c2)n1          MGC-803             =           5.50

###

test: Aqueous solubility of compound in PBS at pH 7.4; format: physicochemical
// values below are reported solubility
measured_metric: solubility (µM)

> print(dat)
                                 cpd.smiles  measured.metric  value.prefix  result.number
1  CCc1nc(-c2ncc(OC)cn2)n(-c2cccc(C(=O)NCCCCc3ccccc3)c2)n1       solubility             <            1.6
2  CCc1nc(-c2ccc(OC)cc2)n(-c2cccc(C(=O)NCCCCn3ncc(Br)n3)c2)n1       solubility             <            1.6
3  CCc1nc(-c2ccc(OC)cc2)n(-c2cccc(C(=O)NCCCCn3ncnn3)c2)n1       solubility             =            194
4  CCc1nc(-c2ccc(OC)cc2)n(-c2cccc(C(=O)NCCCCn3cccn3)c2)n1       solubility             =            393
5  CCc1nc(-c2ccc(OC)cc2)n(-c2cccc(C(=O)NCCCCn3nccn3)c2)n1       solubility             =            272
